Experiment: Inhibition of Escherichia coli RNA polymerase after 1 hr by fluorescence assay
Experimental Endpoint: IC50 (µM)
# unit: µM | format: bare number

Value lookup for IC50; key = CCCC/C(C)=C/C=C(\C)C(=O)c1c(O)cc([C@H](C)CC/C=C/NC(=O)OC)oc1=O [MYXOPYRONIN B]
24

May I ask what IC50 has been recorded for Cc1cc(O)c(C(=O)CCCCCCCC(=O)Nc2c3sscc-3[nH]c2=O)c(=O)o1 ?
14

Which IC50 reading was recorded for the compound CO[C@H]1/C=C/O[C@@]2(C)Oc3c(C)c(O)c4c(O)c(c(/C=N/N5CCN(C)CC5)c(O)c4c3C2=O)NC(=O)/C(C)=C\C=C\[C@H](C)[C@H](O)[C@@H](C)[C@@H](O)[C@@H](C)[C@H](OC(C)=O)[C@@H]1C [RIFAMPIN] ?
0.08

All values here come from ChEMBL document CHEMBL2321743.
